target: ROR1 (antigen of the KD determination and of the Octet dissociation measurement) (UniProt Q01973 30-403, limits assumed); experiment: method not stated (conventional procedures)
Sequence (Q01973 30-403 limits assumed): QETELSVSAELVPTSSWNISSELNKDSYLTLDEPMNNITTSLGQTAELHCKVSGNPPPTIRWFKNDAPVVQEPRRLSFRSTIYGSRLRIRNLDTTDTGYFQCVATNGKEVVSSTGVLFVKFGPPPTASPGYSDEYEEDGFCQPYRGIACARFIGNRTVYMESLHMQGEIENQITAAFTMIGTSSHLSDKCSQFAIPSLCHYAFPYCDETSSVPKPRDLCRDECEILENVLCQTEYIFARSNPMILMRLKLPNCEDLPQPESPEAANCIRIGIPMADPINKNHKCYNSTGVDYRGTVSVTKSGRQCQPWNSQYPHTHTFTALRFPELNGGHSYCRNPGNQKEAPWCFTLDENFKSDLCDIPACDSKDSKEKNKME
assay.metric: Kd (nM)
A number alone suffices; assume nM.

# input binder: PR001367 (antibody, human IgG1, kappa, V domains shown, fully human IgG1, kappa) VH: QVQLVESGGGVVQPGRSLRLSCAASGFSFSSYAMHWVRQAPGRGLEWVAVIWYDGGDEDYIDSVKGRFTISRDDSKNTLYLQMNSLRAEDTAVYYCAREQARSFDLWGRGTLVTVSS VL: DVVMTQSPSTLSASVGDRVTITCRASQTINNWLAWYQQKPGKAPKLLIYKASSLESGVPSRFSGSGSGTEFTLTISSLQPDDFATYYCQQYNSYSPMYTFGQGTKVEIKR ; wanted: its Kd 3.06

# input binder: PR001354 (antibody, human IgG1, kappa, V domains shown, fully human IgG1, kappa; also called anti-ROR1 1015M2-C9 hIgG1; PR001354(WT)) VH: QVQLVQSGGGVVQPGRSLRLSCAASGFTFSSYGMHWVRQAPGKGLEWVAIMWYDGSDKDYADSVKGRFTISRDTSKNTLYLQMNSLRAEDTAVYYCAREQARSFDLWGRGTLVTVSS VL: DIVMTQSPSSLSASVGDRVTITCRASQTINNWLAWYQQKPGKAPKLLIYKASSLESGVPSRFSGSGSGTEFTLTISSLQPDDFATYYCQQYNSYSPMYTFGQGTKVEIKR ; wanted: its Kd 1.13

Let us examine a further case.
# input binder: PR001365 (antibody, human IgG1, kappa, V domains shown, fully human IgG1, kappa) VH: QVQLVQSGGGVVQPGRSLRLSCAASGFTFSSYGMHWVRQAPGKGLEWVAVIWYDGSDKDYADSVKGRFTISRDTSKNTLYLQMNSLRAEDTAVYYCAREQARSFDLWGRGTLVTVSS VL: DIQMTQSPYSLSASVGDRVTITCRASQTINNWLAWYQQKPGKAPKLLIYKASSLESGVPSRFSGSGSGTEFTLTISSLQPDDFATYYCQQYKLYSPMYTFGQGTKVEIKR ; wanted: its Kd 0.237
